Target: Recombinant Csk (Homo sapiens, UniProt P41240)
Sequence (P41240 whole entry, species assumed): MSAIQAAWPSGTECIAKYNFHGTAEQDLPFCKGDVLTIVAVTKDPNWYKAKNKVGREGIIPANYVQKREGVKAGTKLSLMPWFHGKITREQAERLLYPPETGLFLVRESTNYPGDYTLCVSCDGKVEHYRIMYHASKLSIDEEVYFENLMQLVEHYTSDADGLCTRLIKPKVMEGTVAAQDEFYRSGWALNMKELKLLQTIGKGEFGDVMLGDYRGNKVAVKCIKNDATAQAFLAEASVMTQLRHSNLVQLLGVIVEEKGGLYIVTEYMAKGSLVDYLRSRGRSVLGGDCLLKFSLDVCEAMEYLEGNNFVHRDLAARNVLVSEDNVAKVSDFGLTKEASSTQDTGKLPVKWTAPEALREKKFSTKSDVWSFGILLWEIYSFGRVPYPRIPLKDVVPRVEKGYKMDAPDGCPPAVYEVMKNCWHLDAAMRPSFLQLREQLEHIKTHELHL
Assay: Csk tyrosine kinase activity, poly E4Y / 32P-ATP phosphorylation assay
Type: biochemical
Conditions: Table 3, Formula II compounds; NI = no inhibition at 100 μg/mL
List of IC50 values.
Measured endpoint: IC50 (µM)

compound="COc1ccc(Sc2ccc(NS(=O)(=O)c3ccc(C)cc3)c(NS(=O)(=O)c3ccc(C)cc3)c2)cc1 [Compound 12gg]" measured_target="Recombinant Csk (Homo sapiens, UniProt P41240)" unit=µM qualifier_symbol=> readout_number=180
compound="Cc1ccc(S(=O)(=O)Nc2ccc(Oc3cccc(CC(=O)O)c3)cc2NS(=O)(=O)c2ccc(C)cc2)cc1 [Compound 12y]" measured_target="Recombinant Csk (Homo sapiens, UniProt P41240)" unit=µM qualifier_symbol== readout_number=104
compound="COc1ccc(Oc2ccc(NS(=O)(=O)c3ccc(OC)c(OC)c3)c(NS(=O)(=O)c3ccc(OC)c(OC)c3)c2)cc1 [Compound 12m]" measured_target="Recombinant Csk (Homo sapiens, UniProt P41240)" unit=µM qualifier_symbol=> readout_number=159
compound="COc1ccc(Oc2ccc(NS(=O)(=O)c3c(C)cc(C)cc3C)c(NS(=O)(=O)c3c(C)cc(C)cc3C)c2)cc1 [Compound 12q]" measured_target="Recombinant Csk (Homo sapiens, UniProt P41240)" unit=µM qualifier_symbol=> readout_number=168
compound="Cc1ccc(S(=O)(=O)Nc2ccc(Oc3cccc(C(=O)O)c3)cc2NS(=O)(=O)c2ccc(C)cc2)cc1 [Compound 12x]" measured_target="Recombinant Csk (Homo sapiens, UniProt P41240)" unit=µM qualifier_symbol== readout_number=72
compound="Cc1ccc(S(=O)(=O)Nc2ccc(-n3cccn3)cc2NS(=O)(=O)c2ccc(C)cc2)cc1 [Compound 17a]" measured_target="Recombinant Csk (Homo sapiens, UniProt P41240)" unit=µM qualifier_symbol== readout_number=214
compound="COc1ccc(Oc2ccc(NS(=O)(=O)c3ccc(C(C)C)cc3)c(NS(=O)(=O)c3ccc(C(C)C)cc3)c2)cc1 [Compound 12b]" measured_target="Recombinant Csk (Homo sapiens, UniProt P41240)" unit=µM qualifier_symbol=> readout_number=168
